B1: Floral homeotic protein … (Arabidopsis thaliana (Mouse-ear cress)), P48007 (parent)
chain: MGRGKIEIKRIENANNRVVTFSKRRNGLVKKAKEITVLCDAKVALIIFASNGKMIDYCCPSMDLGAMLDQYQKLSGKKLWDAKHENLSNEIDRIKKENDSLQLELRHLKGEDIQSLNLKNLMAVEHAIEHGLDKVRDHQMEILISKRRNEKMMAEEQRQLTFQLQQQEMAIASNARGMMMRDHDGQFGYRVQPIQPNLQEKIMSLVID

# Variants of: B1
# applied_conditions: with sep3_arath SEP3, O22456
# Sequence (O22456 whole entry): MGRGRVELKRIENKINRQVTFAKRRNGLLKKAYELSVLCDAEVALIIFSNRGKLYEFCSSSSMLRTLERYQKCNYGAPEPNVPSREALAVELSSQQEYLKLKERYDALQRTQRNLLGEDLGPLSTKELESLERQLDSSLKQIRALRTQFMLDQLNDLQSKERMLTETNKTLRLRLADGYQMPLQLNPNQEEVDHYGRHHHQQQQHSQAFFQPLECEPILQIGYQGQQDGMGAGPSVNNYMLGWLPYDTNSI
measurement_name: effect of a mutation on the interaction

Example entries and their recorded answers appear below.
>  <mutant_label>
E141R;P193L

>  <effect of a mutation on the interaction>
decreasing interaction

$$$$
>  <mutant_label>
L118P;N149D;L160P

>  <effect of a mutation on the interaction>
decreasing interaction

$$$$
>  <mutant_label>
L121P

>  <effect of a mutation on the interaction>
decreasing interaction

$$$$
>  <mutant_label>
K151E

>  <effect of a mutation on the interaction>
decreasing interaction

$$$$

(Q) Identify the reported effect of a mutation on the interaction for the following entry. L105P;D112A;E125G;V206A
(A) decreasing interaction

(Q) Supply reported effect of a mutation on the interaction belonging to this variant: D99G;Q199G
(A) decreasing interaction

(Q) Please report effect of a mutation on the interaction for the following variant: V124D
(A) decreasing interaction

(Q) Using the record for D112G;R176G , state its measured effect of a mutation on the interaction.
(A) decreasing interaction

(Q) Answer with reported effect of a mutation on the interaction of A127P
(A) decreasing interaction

(Q) For the variant R158Q;E168V , report effect of a mutation on the interaction.
(A) decreasing interaction

(Q) Look up and state reported effect of a mutation on the interaction for I142F
(A) decreasing interaction

(Q) Recall and state the measured effect of a mutation on the interaction for L143P .
(A) decreasing interaction

(Q) Return effect of a mutation on the interaction for the following variant: A154P;Q157E;F162L
(A) decreasing interaction

(Q) Report effect of a mutation on the interaction, nothing else, for this variant: M122K;E141K;M178V
(A) decreasing interaction

(Q) Answer with reported effect of a mutation on the interaction of E125G
(A) decreasing interaction

(Q) Annotate the variant S115F;K119I;N120I with its measured effect of a mutation on the interaction.
(A) decreasing interaction

(Q) # return recorded effect of a mutation on the interaction for input I128F
(A) decreasing interaction

(Q) Annotate the variant L164Q with its measured effect of a mutation on the interaction.
(A) decreasing interaction

(Q) Determine its reported effect of a mutation on the interaction: E129K;L132P
(A) decreasing interaction

(Q) Identify measured effect of a mutation on the interaction corresponding to P193L
(A) decreasing interaction

(Q) Given F162L;M203T , respond with its effect of a mutation on the interaction.
(A) decreasing interaction

(Q) Find the measured effect of a mutation on the interaction of N89S;M152V and report it.
(A) decreasing interaction

(Q) Give a short answer stating reported effect of a mutation on the interaction for L116P;M152T .
(A) decreasing interaction

(Q) Assign effect of a mutation on the interaction to the following record: I128V
(A) decreasing interaction

(Q) Determine its reported effect of a mutation on the interaction: E129D
(A) decreasing interaction

The measurements presented in this section are drawn from IntAct's records for PubMed 15604664.
